- experimental-target: MCT4 (Homo sapiens, UniProt O15427)
- Sequence (O15427 1-465): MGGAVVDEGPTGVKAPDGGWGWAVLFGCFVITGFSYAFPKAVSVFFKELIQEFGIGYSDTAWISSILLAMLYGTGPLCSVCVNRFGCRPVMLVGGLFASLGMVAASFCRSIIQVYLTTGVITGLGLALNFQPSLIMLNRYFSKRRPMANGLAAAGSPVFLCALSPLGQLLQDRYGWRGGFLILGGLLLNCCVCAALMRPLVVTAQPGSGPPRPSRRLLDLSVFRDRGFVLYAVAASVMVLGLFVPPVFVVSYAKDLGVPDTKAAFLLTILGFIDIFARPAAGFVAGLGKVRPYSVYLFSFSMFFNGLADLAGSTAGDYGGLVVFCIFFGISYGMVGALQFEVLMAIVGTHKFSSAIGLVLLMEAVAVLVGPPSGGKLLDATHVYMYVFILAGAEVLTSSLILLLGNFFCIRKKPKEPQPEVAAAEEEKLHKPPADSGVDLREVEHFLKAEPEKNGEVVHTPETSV
- procedure-details: Assay (a): lactate efflux from SK-Br-3 cells (lactate in media, 4 h)
- Assay type: cell-based
- Parameters: a natively glycolytic human breast adenocarcinoma line predominantly expressing MCT4; host or cells: SK-Br-3
- experimental-setup: mean of at least three repeats (Example 32, marked *, two repeats), read-out: MCT4 lactate efflux pIC50 (SKBR3) (converted)
property: IC50 (nM)
Field: numeric (nM). Do not append units.

smiles-structure | experimental-target | units | IC50
Cc1nc2nc(C)c(C[C@@H]3CCN(c4cnc(-c5ccc(CN6CCN(C)[C@@H](C)C6)cc5)cn4)C3)c(C)n2n1 | MCT4 (Homo sapiens, UniProt O15427) | nM | 1.58
CC(=O)N1CCN(Cc2ccc(-c3ncc(N4CC[C@@H](Cc5c(C)nc6nc(C)nn6c5C)C4)cn3)cc2)CC1 | MCT4 (Homo sapiens, UniProt O15427) | nM | 0.251
Cc1nc2nc(C)c(C[C@@H]3CCN(c4cnc(-c5ccc(CN6CCN(CCO)CC6)cc5)nc4)C3)c(C)n2n1 | MCT4 (Homo sapiens, UniProt O15427) | nM | 0.501
Cc1nc2nc(C)c(C[C@@H]3CCN(c4cnc(-c5ccc(CN6C[C@@H](C)N(C)[C@@H](C)C6)cc5)cn4)C3)c(C)n2n1 | MCT4 (Homo sapiens, UniProt O15427) | nM | 1.26

Req: Value lookup for IC50; key = Cc1nc2nc(C)c(C[C@@H]3CCN(c4cnc(-c5ccc(CN6CCCC6)nc5)cn4)C3)c(C)n2n1
Resp: 2.51

Req: Value lookup for IC50; key = Cc1nc2nc(C)c(C[C@@H]3CCN(c4ccc(-c5cnc(CN6CCOCC6)cn5)nc4)C3)c(C)n2n1
Resp: 0.316

Req: Value lookup for IC50; key = Cc1nc2nc(C)c(C[C@@H]3CCN(c4cnc(-c5ccc(CN6CCCC6)cn5)cn4)C3)c(C)n2n1
Resp: 3.16

Req: Value lookup for IC50; key = Cc1nc2nc(C)c(O[C@@H]3CCN(c4ccc(-c5cnc(CN6CCOCC6)nc5)cc4)C3)c(C)n2n1
Resp: 2

Req: Value lookup for IC50; key = Cc1nc2nc(C)c(C[C@@H]3CCN(c4ccc(-c5ccc(CN6CCN(C)CC6)cc5)nc4)C3)c(C)n2n1
Resp: 0.631

Req: Value lookup for IC50; key = Cc1nc2nc(C)c(O[C@@H]3CCN(c4ccc(-c5ccc(CN6C7CCC6CN(C)C7)nn5)cc4)C3)c(C)n2n1
Resp: 2

Req: Value lookup for IC50; key = Cc1nc2nc(C)c(C[C@@H]3CCN(c4ccc(-c5cnc(CN6CCOCC6)nc5)cc4)C3)c(C)n2n1
Resp: 0.251

Origin of the recorded values: patent US12503473B2
